These data points were gathered from patent US6545182B2.

Target: alpha 2B adrenergic receptor (Homo sapiens, UniProt P18089)
Construct: expressed in transfected cells; host or cells: NIH-3T3 cells, transient cotransfection by calcium phosphate
Sequence (P18089 1-450): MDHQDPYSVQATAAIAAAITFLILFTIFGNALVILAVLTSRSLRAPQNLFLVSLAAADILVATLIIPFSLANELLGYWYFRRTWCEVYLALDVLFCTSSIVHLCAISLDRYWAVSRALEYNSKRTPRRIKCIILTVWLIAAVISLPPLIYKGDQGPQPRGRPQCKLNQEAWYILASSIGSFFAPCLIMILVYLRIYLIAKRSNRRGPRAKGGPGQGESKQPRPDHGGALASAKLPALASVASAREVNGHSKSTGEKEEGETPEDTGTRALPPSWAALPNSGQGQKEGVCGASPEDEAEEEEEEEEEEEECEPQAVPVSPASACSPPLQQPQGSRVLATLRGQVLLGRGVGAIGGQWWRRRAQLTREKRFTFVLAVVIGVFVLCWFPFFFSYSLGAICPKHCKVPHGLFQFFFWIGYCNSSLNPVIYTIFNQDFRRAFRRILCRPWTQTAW
Assay: RSAT (Receptor Selection and Amplification Technology) assay, alpha 2B
Format: cell-based
Conditions: NIH-3T3 cells cotransfected with receptor and Gq/i5
EC50 strictly less than 50 nM = 1.0. Otherwise 0.0.

Answered cases to consult:
- compound: "OCCNC(=S)NCc1cc(Cl)ccc1Br"
  assigned category: 1.0
- compound: "OCCNC(=S)NCc1ccc(F)cc1C(F)(F)F"
  assigned category: 0.0
- compound: "Cc1cc(Br)c(F)c(CNC(=S)NCCO)c1"
  assigned category: 1.0
- compound: "OCCNC(=S)NCc1cc(Br)ccc1F"
  assigned category: 1.0

**Q:** Does OCCNC(=S)NCc1c(Br)ccc(I)c1F have EC50 strictly under 50 nM?
**A:** 0.0

----------
Target: alpha 2C adrenergic receptor (Homo sapiens)
Construct: expressed in transfected cells; host or cells: NIH-3T3 cells, transient cotransfection by calcium phosphate
Sequence (P18825 whole entry, species assumed): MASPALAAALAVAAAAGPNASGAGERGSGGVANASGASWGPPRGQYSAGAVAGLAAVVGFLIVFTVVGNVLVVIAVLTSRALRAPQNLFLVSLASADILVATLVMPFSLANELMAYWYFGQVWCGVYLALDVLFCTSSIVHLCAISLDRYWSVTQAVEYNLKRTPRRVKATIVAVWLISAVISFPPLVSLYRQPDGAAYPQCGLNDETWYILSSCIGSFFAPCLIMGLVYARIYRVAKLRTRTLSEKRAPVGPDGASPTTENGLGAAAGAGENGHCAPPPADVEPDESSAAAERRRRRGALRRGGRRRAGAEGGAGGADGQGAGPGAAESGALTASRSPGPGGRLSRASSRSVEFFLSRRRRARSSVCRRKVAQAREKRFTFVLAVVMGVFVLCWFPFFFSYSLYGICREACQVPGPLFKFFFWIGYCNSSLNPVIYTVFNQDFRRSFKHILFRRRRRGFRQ
Experiment: RSAT (Receptor Selection and Amplification Technology) assay, alpha 2C
Assay type: cell-based
Conditions: NIH-3T3 cells cotransfected with receptor and Gq/i5
readout kind: EC50

Here are 4 compounds together with their reported answers.
- substance smiles: "OCCNC(=S)NCc1c(F)c(F)c(F)c(F)c1F"
  EC50: "≥ 210000 nM"
- substance smiles: "OCCNC(=S)NCc1c(Br)ccc(F)c1F"
  EC50: "≥ 210000 nM"
- substance smiles: "Cc1ccc(Br)c(F)c1CNC(=S)NCCO"
  EC50: "> 2000 nM"
- substance smiles: "OCCNC(=S)NCc1cccc(Cl)c1"
  EC50: "≥ 210000 nM"

Moving on to the next compound.
**Q:** Name the recorded EC50 for OCCNC(=S)NCc1ccc(F)cc1C(F)(F)F .
**A:** > 2000 nM

----------
Target: alpha 2B adrenergic receptor (Homo sapiens)
Construct: expressed in transfected cells; host or cells: NIH-3T3 cells, transient cotransfection by calcium phosphate
Assay: RSAT (Receptor Selection and Amplification Technology) assay, alpha 2B
Assay type: cell-based
Conditions: NIH-3T3 cells cotransfected with receptor and Gq/i5
So I've got a bunch of molecules here, and I need their EC50 values.
Answers are plain numbers, in nM.

Here are 8 molecules together with their reported answers.
- molecule: "OCCNC(=S)NCc1ccc(F)cc1Cl"
  measured target: "alpha 2B adrenergic receptor (Homo sapiens)"
  EC50 [nM]: 579
- molecule: "OCCNC(=S)NCc1ccc(F)c(F)c1F"
  measured target: "alpha 2B adrenergic receptor (Homo sapiens)"
  EC50 [nM]: 482
- molecule: "OCCNC(=S)NCc1c(Br)ccc(F)c1F"
  measured target: "alpha 2B adrenergic receptor (Homo sapiens)"
  EC50 [nM]: 48
- molecule: "COc1cccc(F)c1CNC(=S)NCCO"
  measured target: "alpha 2B adrenergic receptor (Homo sapiens)"
  EC50 [nM]: 235
- molecule: "OCCNC(=S)NCc1cccc(Cl)c1F [drawing 20]"
  measured target: "alpha 2B adrenergic receptor (Homo sapiens)"
  EC50 [nM]: 16
- molecule: "COc1ccc(F)c(CNC(=S)NCCO)c1"
  measured target: "alpha 2B adrenergic receptor (Homo sapiens)"
  EC50 [nM]: 282
- molecule: "COc1ccc(Cl)cc1CNC(=S)NCCO"
  measured target: "alpha 2B adrenergic receptor (Homo sapiens)"
  EC50 [nM]: 19
- molecule: "COc1c(F)cccc1CNC(=S)NCCO"
  measured target: "alpha 2B adrenergic receptor (Homo sapiens)"
  EC50 [nM]: 169

Please give EC50 for each item listed below.
1. OCCNC(=S)NCc1c(F)ccc(Cl)c1F
2. OCCNC(=S)NCc1ccc(F)c(Cl)c1

**A:**
1: 98; 2: 99
